The measured values listed here are drawn from patent US20230416329A1.

target: bovine trypsin (bovine, UniProt P00760 24-246); test: trypsin inhibition, BApNA substrate
Sequence (P00760 24-246): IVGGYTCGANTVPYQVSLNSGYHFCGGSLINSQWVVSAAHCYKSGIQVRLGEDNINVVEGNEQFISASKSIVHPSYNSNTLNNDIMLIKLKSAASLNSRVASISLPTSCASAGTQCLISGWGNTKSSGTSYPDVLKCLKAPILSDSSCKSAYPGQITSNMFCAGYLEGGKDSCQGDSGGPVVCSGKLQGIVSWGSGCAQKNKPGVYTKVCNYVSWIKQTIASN
Bridge positions count the residues as written; N and C are the ends. Ends that are not written are not given here.
Value type: pKi
Scale: pKi equals -log10([C]), with [C] in mol/L.

Past entries and their recorded results:
{"Binder": "CVRATKSIPPICF (disulfide 1-12 (inferred)) [BT71]", "pKi": 7.70}
{"Binder": "CGTATKSIPPICF (disulfide 1-12 (inferred)) [BT25]", "pKi": 6.68}
{"Binder": "CLRATKSIPPICF (disulfide 1-12 (inferred)) [BT72]", "pKi": 7.52}
{"Binder": "CKRATKSIPPICF (disulfide 1-12 (inferred)) [BT77]", "pKi": 8.07}
{"Binder": "RCTKSIPPHCF (disulfide 2-10 (inferred)) [BT62]", "pKi": 8.00}

We next turn to a different binder, shown below.
Q: Provide measured pKi value, entry: CGRFTKSIPPICF (disulfide 1-12 (inferred)) [BT52]
A: 7.52
